Molecular target: Heat shock protein HSP90 (Homo sapiens, UniProt P07900+P08238)
Assay: Concentration required to inhibit Bis-ANS activity by recombinant heat shock protein 90 (rHSP90) conformational assay
Threshold check on IC50: strictly below 3 µM is fulfilled; on or above 3 µM is not fulfilled.

>  <compound.structure>
CO[C@H]1/C=C\C=C(/C)C(=O)NC2=CC(=O)C(NC(=O)c3ccc(CN4CCN(c5ccc(Cl)cc5)CC4)cc3)=C(C[C@@H](C)C[C@H](OC)[C@H](O)[C@@H](C)/C=C(\C)[C@@H]1OC(N)=O)C2=O

>  <class>
fulfilled

$$$$
>  <compound.structure>
CO[C@H]1/C=C\C=C(/C)C(=O)NC2=CC(=O)C(NC(=O)c3ccc(CN4CCN(C5CCCCC5)CC4)cc3)=C(C[C@@H](C)C[C@H](OC)[C@H](O)[C@@H](C)/C=C(\C)[C@@H]1OC(N)=O)C2=O

>  <class>
not fulfilled

$$$$
>  <compound.structure>
CO[C@H]1/C=C\C=C(/C)C(=O)NC2=CC(=O)C(NC(=O)c3ccc([N+](=O)[O-])cc3)=C(C[C@@H](C)C[C@H](OC)[C@H](O)[C@@H](C)/C=C(\C)[C@@H]1OC(N)=O)C2=O

>  <class>
fulfilled

$$$$
>  <compound.structure>
CO[C@H]1/C=C\C=C(/C)C(=O)NC2=CC(=O)C(NC(=O)OCC(C)C)=C(C[C@@H](C)C[C@H](OC)[C@H](O)[C@@H](C)/C=C(\C)[C@@H]1OC(N)=O)C2=O

>  <class>
not fulfilled

$$$$
>  <compound.structure>
CO[C@H]1/C=C\C=C(/C)C(=O)NC2=CC(=O)C(c3cccs3)=C(C[C@@H](C)C[C@H](OC)[C@H](O)[C@@H](C)/C=C(\C)[C@@H]1OC(N)=O)C2=O

>  <class>
fulfilled

$$$$
>  <compound.structure>
CO[C@H]1/C=C\C=C(/C)C(=O)NC2=CC(=O)C(NC(=O)c3ccc(CN4CCN(C)CC4)cc3)=C(C[C@@H](C)C[C@H](OC)[C@H](O)[C@@H](C)/C=C(\C)[C@@H]1OC(N)=O)C2=O

>  <class>
not fulfilled

$$$$
>  <compound.structure>
CCCN(CCC)Cc1ccc(C(=O)NC2=C3C[C@@H](C)C[C@H](OC)[C@H](O)[C@@H](C)/C=C(\C)[C@H](OC(N)=O)[C@@H](OC)/C=C\C=C(/C)C(=O)NC(=CC2=O)C3=O)cc1

>  <class>
fulfilled

$$$$
>  <compound.structure>
CO[C@H]1/C=C\C=C(/C)C(=O)NC2=CC(=O)C(NC(=O)C(C)=O)=C(C[C@@H](C)C[C@H](OC)[C@H](O)[C@@H](C)/C=C(\C)[C@@H]1OC(N)=O)C2=O

>  <class>
not fulfilled

$$$$
>  <compound.structure>
CO[C@H]1/C=C\C=C(/C)C(=O)NC2=CC(=O)C(NC(=O)c3ccc(CN4CCc5ccccc5C4)cc3)=C(C[C@@H](C)C[C@H](OC)[C@H](O)[C@@H](C)/C=C(\C)[C@@H]1OC(N)=O)C2=O

>  <class>
fulfilled

$$$$

* * *

Target: Heat shock protein HSP90 (Homo sapiens, UniProt P07900+P08238)
Assay: Concentration required to inhibit biotin-GM binding to recombinant heat shock protein 90(rHsp90)
Assay type: protein assay

>  <compound.structure>
COc1ccc(C(=O)NC2=C3C[C@@H](C)C[C@H](OC)[C@H](O)[C@@H](C)/C=C(\C)[C@H](OC(N)=O)[C@@H](OC)/C=C\C=C(/C)C(=O)NC(=CC2=O)C3=O)cc1

>  <target>
Heat shock protein HSP90 (Homo sapiens, UniProt P07900+P08238)

>  <IC50, µM>
5

$$$$
>  <compound.structure>
CO[C@H]1/C=C\C=C(/C)C(=O)NC2=CC(=O)C(NC(=O)c3ccc([N+](=O)[O-])cc3)=C(C[C@@H](C)C[C@H](OC)[C@H](O)[C@@H](C)/C=C(\C)[C@@H]1OC(N)=O)C2=O

>  <target>
Heat shock protein HSP90 (Homo sapiens, UniProt P07900+P08238)

>  <IC50, µM>
3.5

$$$$
>  <compound.structure>
CO[C@H]1/C=C\C=C(/C)C(=O)NC2=CC(=O)C(NC(=O)c3ccc(CN4CCN(C5CCCCC5)CC4)cc3)=C(C[C@@H](C)C[C@H](OC)[C@H](O)[C@@H](C)/C=C(\C)[C@@H]1OC(N)=O)C2=O

>  <target>
Heat shock protein HSP90 (Homo sapiens, UniProt P07900+P08238)

>  <IC50, µM>
5.5

$$$$
>  <compound.structure>
CO[C@H]1/C=C\C=C(/C)C(=O)NC2=CC(=O)C(NC(=O)c3ccc(CN4CCN(C)CC4)cc3)=C(C[C@@H](C)C[C@H](OC)[C@H](O)[C@@H](C)/C=C(\C)[C@@H]1OC(N)=O)C2=O

>  <target>
Heat shock protein HSP90 (Homo sapiens, UniProt P07900+P08238)

>  <IC50, µM>
5

$$$$
>  <compound.structure>
CO[C@H]1/C=C\C=C(/C)C(=O)NC2=CC(=O)C(c3cccs3)=C(C[C@@H](C)C[C@H](OC)[C@H](O)[C@@H](C)/C=C(\C)[C@@H]1OC(N)=O)C2=O

>  <target>
Heat shock protein HSP90 (Homo sapiens, UniProt P07900+P08238)

>  <IC50, µM>
1.7

$$$$
>  <compound.structure>
CO[C@H]1/C=C\C=C(/C)C(=O)NC2=CC(=O)C(NC(=O)c3ccc(CN(C)C)cc3)=C(C[C@@H](C)C[C@H](OC)[C@H](O)[C@@H](C)/C=C(\C)[C@@H]1OC(N)=O)C2=O

>  <target>
Heat shock protein HSP90 (Homo sapiens, UniProt P07900+P08238)

>  <IC50, µM>
17

$$$$
>  <compound.structure>
CO[C@H]1/C=C\C=C(/C)C(=O)NC2=CC(=O)C(NC(=O)C(C)=O)=C(C[C@@H](C)C[C@H](OC)[C@H](O)[C@@H](C)/C=C(\C)[C@@H]1OC(N)=O)C2=O

>  <target>
Heat shock protein HSP90 (Homo sapiens, UniProt P07900+P08238)

>  <IC50, µM>
15

$$$$
>  <compound.structure>
CO[C@H]1/C=C\C=C(/C)C(=O)NC2=CC(=O)C(NC(=O)c3ccc(CN4CCc5ccccc5C4)cc3)=C(C[C@@H](C)C[C@H](OC)[C@H](O)[C@@H](C)/C=C(\C)[C@@H]1OC(N)=O)C2=O

>  <target>
Heat shock protein HSP90 (Homo sapiens, UniProt P07900+P08238)

>  <IC50, µM>
1

$$$$
>  <compound.structure>
CO[C@H]1/C=C\C=C(/C)C(=O)NC2=CC(=O)C(NC(=O)c3ccco3)=C(C[C@@H](C)C[C@H](OC)[C@H](O)[C@@H](C)/C=C(\C)[C@@H]1OC(N)=O)C2=O

>  <target>
Heat shock protein HSP90 (Homo sapiens, UniProt P07900+P08238)

>  <IC50, µM>
4

$$$$
>  <compound.structure>
COc1ccc(N2CCN(Cc3ccc(C(=O)NC4=C5C[C@@H](C)C[C@H](OC)[C@H](O)[C@@H](C)/C=C(\C)[C@H](OC(N)=O)[C@@H](OC)/C=C\C=C(/C)C(=O)NC(=CC4=O)C5=O)cc3)CC2)cc1

>  <target>
Heat shock protein HSP90 (Homo sapiens, UniProt P07900+P08238)

>  <IC50, µM>
3

$$$$

* * *

Test system: MCF7
Assay: Inhibitory concentration of compound against MCF-7 cells by MTS assay; note: time not given here
Assay type: functional, cell-based
Conditions: Homo sapiens
pIC50: −log10 of the molar value.

>  <compound.structure>
CO[C@H]1/C=C\C=C(/C)C(=O)NC2=CC(=O)C(NC(=O)OCC(C)C)=C(C[C@@H](C)C[C@H](OC)[C@H](O)[C@@H](C)/C=C(\C)[C@@H]1OC(N)=O)C2=O

>  <relational.operator>
=

>  <pIC50>
6.74

$$$$
>  <compound.structure>
CO[C@H]1/C=C\C=C(/C)C(=O)NC2=CC(=O)C(NC(=O)OCc3ccc(OC(C)=O)cc3)=C(C[C@@H](C)C[C@H](OC)[C@H](O)[C@@H](C)/C=C(\C)[C@@H]1OC(N)=O)C2=O

>  <relational.operator>
=

>  <pIC50>
7.40

$$$$
>  <compound.structure>
CO[C@H]1/C=C\C=C(/C)C(=O)NC2=CC(=O)C(NC(=O)c3ccc(CN4CCN(c5ccc(Cl)cc5)CC4)cc3)=C(C[C@@H](C)C[C@H](OC)[C@H](O)[C@@H](C)/C=C(\C)[C@@H]1OC(N)=O)C2=O

>  <relational.operator>
=

>  <pIC50>
6.82

$$$$
>  <compound.structure>
CO[C@H]1/C=C\C=C(/C)C(=O)NC2=CC(=O)C(NC(=O)c3ccc(CN(C)C)cc3)=C(C[C@@H](C)C[C@H](OC)[C@H](O)[C@@H](C)/C=C(\C)[C@@H]1OC(N)=O)C2=O

>  <relational.operator>
<

>  <pIC50>
4.52

$$$$
>  <compound.structure>
CCN(Cc1ccccc1)Cc1ccc(C(=O)NC2=C3C[C@@H](C)C[C@H](OC)[C@H](O)[C@@H](C)/C=C(\C)[C@H](OC(N)=O)[C@@H](OC)/C=C\C=C(/C)C(=O)NC(=CC2=O)C3=O)cc1

>  <relational.operator>
=

>  <pIC50>
6.70

$$$$
>  <compound.structure>
CCCN(CCC)Cc1ccc(C(=O)NC2=C3C[C@@H](C)C[C@H](OC)[C@H](O)[C@@H](C)/C=C(\C)[C@H](OC(N)=O)[C@@H](OC)/C=C\C=C(/C)C(=O)NC(=CC2=O)C3=O)cc1

>  <relational.operator>
=

>  <pIC50>
6.30

$$$$

Data origin, for the record: ChEMBL document CHEMBL1149179
